- TARGET OR SYSTEM: T1, HLA-A*02:01 (human)
- T1 construct: monomers captured on streptavidin plates; also called MHC class I
- PROTOCOL NOTES: UV peptide exchange ELISA
Listed here are binders together with their documented peptide exchange yield.
MEASURED PROPERTY: peptide exchange yield

INSERT INTO results (binder, measured_property, result) VALUES
  ('ALPEAPAPLLPHIT', 'peptide exchange yield', '20 to 50%'),
  ('LLWDVPAPSL', 'peptide exchange yield', '50 to 75%'),
  ('ALLHPQGFEV', 'peptide exchange yield', '20 to 50%'),
  ('NLIGKIENV', 'peptide exchange yield', '50 to 75%'),
  ('YLLQEPPRTV', 'peptide exchange yield', '20 to 50%'),
  ('VLFDSESIGIYV', 'peptide exchange yield', '50 to 75%'),
  ('TMLLNIPLV', 'peptide exchange yield', '20 to 50%'),
  ('ALVSKGLATV', 'peptide exchange yield', '20 to 50%'),
  ('KMIETDILQKV', 'peptide exchange yield', '≥ 75%'),
  ('LILDWVPYI', 'peptide exchange yield', '50 to 75%'),
  ('LLLDITPEI', 'peptide exchange yield', '≥ 75%'),
  ('AMFESSQNVLL', 'peptide exchange yield', '20 to 50%'),
  ('SLLDEIRAV', 'peptide exchange yield', '50 to 75%'),
  ('RLAEVGQYEQV', 'peptide exchange yield', '20 to 50%'),
  ('LLVSNLDFGV', 'peptide exchange yield', '50 to 75%'),
  ('QLLDADGFLNV', 'peptide exchange yield', '50 to 75%'),
  ('HLYSSIEHLTT', 'peptide exchange yield', '50 to 75%'),
  ('GLWEIENNPTVKA', 'peptide exchange yield', '≥ 75%'),
  ('VMITKLVEV', 'peptide exchange yield', '50 to 75%'),
  ('YLVYILNEL', 'peptide exchange yield', '20 to 50%'),
  ('FLATFPLAAV', 'peptide exchange yield', '≥ 75%'),
  ('VLDELDMEL', 'peptide exchange yield', '20 to 50%'),
  ('GLWEIENNPTV', 'peptide exchange yield', '50 to 75%'),
  ('KLAEGLDIQL', 'peptide exchange yield', '50 to 75%'),
  ('GLVNDLARV', 'peptide exchange yield', '20 to 50%'),
  ('ALGNTVPAV', 'peptide exchange yield', '50 to 75%'),
  ('AMATESILHFA', 'peptide exchange yield', '50 to 75%'),
  ('LLWAGTAFQV', 'peptide exchange yield', '50 to 75%'),
  ('LLADVTHLL', 'peptide exchange yield', '20 to 50%'),
  ('YLYNNMIAKI', 'peptide exchange yield', '50 to 75%'),
  ('AAYGGLNEKSFV', 'peptide exchange yield', '50 to 75%'),
  ('GLLGGGGVLGV', 'peptide exchange yield', '50 to 75%');
